Test system: primary cortical neuronal cultured cells
Test: Test compound cytotoxicity, MTS assay, primary cortical neuronal cultures
Format: cell-based, mouse
Conditions: 1 μM test compound
Recorded measurements of Cytotox (% viable) Neuronal cells at 1 μM, one per entry
reportedProperty: Cytotox (% viable) Neuronal cells at 1 μM (%)

> print(dat)
                                    compound  recordedmeasurement
 1  COc1cc(NS(=O)(=O)c2ccc(C)cc2)c2ncccc2c1 [PB 116]                   81
 2          CCCc1cnc2c(O)cccn2c1=O [PB 1149]                 86.2
 3  CCn1nccc1-n1cnc2c(O)c(Cl)cc(Cl)c2c1=O [PB 1088]                  102
 4  Oc1c(I)cc(-c2ccccc2C(F)(F)F)c2cccnc12 [PB 860]                   91
 5     Oc1cccc2ccc(CNCc3ccccn3)nc12 [PB 991]                   96
 6             Cl.Nc1ccc(O)c2ncccc12 [PB 44]                  108
 7           Oc1c(Br)cc(Br)c2cccnc12 [PB 47]                  100
 8              NCc1ccc2cccc(O)c2n1 [PB 968]                  101
 9    Oc1ccccc1-c1cc(Cl)c2cccnc2c1O [PB 947]                  100
10   CCOC(=O)c1cnc2c(O)c(CC)ncc2c1 [PB 1116]                  103
11         FC(F)(F)CSc1cccc2cccnc12 [PB 913]                  100
